system-tested: cynomolgus monkey factor Bb (cynomolgus monkey)
experimental-protocol: BLI Octet, biotinylated antibody on SA biosensors
value-kind: pKd
Schema: pKd number; meaning minus log10 of the concentration expressed in molar units.

Use these answered entries as a reference point.
{"columns": ["binder", "value-kind", "reading"],
 "data": [
  ["VH6/Vκ6 (antibody, V domains shown) VH: EVQLVESGGGLVKPGGSLRLSCAASGFTFSNYAMSWVRQAPGKRLEWVATISNRGSYTYYPDSVKGRFTISRDNAKNSLYLQMNSLRAEDTALYYCARERPMDYWGQGTLVTVSS VL: DIVMTQSPSFLSASVGDRVTITCKASQDVGTAVAWYQQKPGKAPKLLIYWASTRHTGVPDRFTGSGSGTDFTLTISSLQSEDFAVYFCHQHSSNPLTFGQGTKLEIK", "pKd", 7.96],
  ["VH4/Vκ7 (antibody, V domains shown) VH: EVQLVESGGGLVKPGGSLRLSCAASGFTFSNYAMSWVRQAPGKRLEWVATISNRGSYTYYPDSVKGRFTISRDNAKNSLYLQMSSLRSEDTALYYCARERPMDYWGQGTSVTVSS VL: DIQMTQSPSTLSASVGDRVTITCKASQDVGTAVAWYQQKPGKAPKLLIYWASTRHTGVPDRFSGSGSGTDFTLTISSLQAEDFAVYFCHQHSSNPLTFGQGTKLEIK", "pKd", 7.96],
  ["VH7/Vκ7 (antibody, V domains shown) VH: EVQLVESGGGLVKPGGSLRLSCAASGFTFSNYAMSWVRQTPEKRLEWVATISNRGSYTYYPDSVKGRFTISRDNAKNSLYLQMNSLRAEDTALYYCARERPMDYWGQGTLVTVSS VL: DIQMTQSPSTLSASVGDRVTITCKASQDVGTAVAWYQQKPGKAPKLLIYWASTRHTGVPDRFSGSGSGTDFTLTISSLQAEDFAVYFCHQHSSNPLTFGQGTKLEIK", "pKd", 7.80]
]}

As a next step, examine the binder that follows.
## Input Give the measured pKd for Anti-factor Bb mouse monoclonal antibody (antibody, V domains shown) VH: EVQLVESGGALVKPGGSLKLSCAASGFTFSNYAMSWVRQTPEKRLEWVATISNRGSYTYYPDSVKGRFTISRDNAKNTLYLQMSSLRSEDTALYYCARERPMDYWGQGTSVTVSS VL: DIVMTQSHKFMSTSVGDRVSITCKASQDVGTAVAWYQQKPGQSPKLLIYWASTRHTGVPDRFTGSGSGTDFTLTITNVQSEDLAVYFCHQHSSNPLTFGAGTKLELK
## Output 7.96
